tested on: BaF3; experiment: cells; conditions: Mus musculus, BaF3, 72 h
endpoint label: IC50 (nM)
Just the number in nM, nothing appended.

In the examples that follow, each entry is paired with its recorded IC50.
Cc1cc(NC(=O)Nc2cc(C(C)(C)C)nn2-c2ccc(Cl)cc2)ccc1Nc1ncnc2c1OC(C)(C)C(=O)N2 ... 1
Cc1cc(NC(=O)Nc2cc(C(C)(C)C)nn2-c2ccccc2)ccc1Nc1ncnc2c1OC(C)(C)C(=O)N2 ... 2

Form: item Cc1cc(NC(=O)Nc2cc(C(C)(C)C)nn2-c2ccc(C(F)(F)F)cc2)ccc1Nc1ncnc2c1OC(C)(C)C(=O)N2 ; test system BaF3; IC50: 2

Form: item C[C@@H]1CCc2ncc(F)cc2[C@H]2CCCN2c2ccn3ncc(c3n2)C(=O)N1 ; test system BaF3; IC50: 109
